Source: patent US10681909B2

compounds and their reported Plant response rating (scale of 0 to 100 where 0 is no effect and 100 is complete control)
# Tested on: soybean
# Experiment: Test C postemergence
# Type: in vivo, Glycine max
# Experimental Setup: 31 g ai/ha
Endpoint: Plant response rating (scale of 0 to 100 where 0 is no effect and 100 is complete control)

| Compound | Test Value |
| --- | --- |
| CCOc1nc(-c2ccccc2)nn1Cc1ccnc(C(F)(F)F)c1 [Compound 27] | 70 |
| FC(F)(F)COc1nc(-c2ccccc2)nn1Cc1ccnc(C(F)(F)F)c1 [Compound 24] | 55 |
| CCOc1nc(-c2ccc(C(F)(F)F)cc2)nn1Cc1ccnc(C(F)(F)F)c1 [Compound 35] | 55 |
| CCOc1nc(-c2ccc(F)cc2)nn1Cc1ccnc(C(F)(F)F)c1 [Compound 8] | 65 |
